Ref: patent US20110269811A1

- tested-on: UniProtKB P27338
- Sequence (P27338 whole entry): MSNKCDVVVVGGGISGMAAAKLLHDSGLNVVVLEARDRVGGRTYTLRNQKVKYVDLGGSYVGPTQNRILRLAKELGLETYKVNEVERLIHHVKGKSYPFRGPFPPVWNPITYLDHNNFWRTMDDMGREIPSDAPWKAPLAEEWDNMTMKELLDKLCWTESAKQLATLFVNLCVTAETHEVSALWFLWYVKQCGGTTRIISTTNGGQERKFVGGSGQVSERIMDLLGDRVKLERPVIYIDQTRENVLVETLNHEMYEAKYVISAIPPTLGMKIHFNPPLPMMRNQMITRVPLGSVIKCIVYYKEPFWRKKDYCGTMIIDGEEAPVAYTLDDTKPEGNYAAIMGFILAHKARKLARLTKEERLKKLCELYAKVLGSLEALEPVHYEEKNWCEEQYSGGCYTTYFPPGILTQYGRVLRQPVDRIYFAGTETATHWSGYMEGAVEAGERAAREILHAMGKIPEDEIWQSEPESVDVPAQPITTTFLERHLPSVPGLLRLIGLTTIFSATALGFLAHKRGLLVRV
- method: MAO-B activity, colorimetric method, benzylamine substrate
- condition-description: recombinant human MAO-B
pIC50: −log10 of the molar value. Where a name gives a salt, the structure may show the parent alone.
List of pIC50 values.
reported-endpoint: pIC50

compound	test-value
Cl.NC/C(F)=C\Cc1cccc(SC(F)(F)F)c1 [II-15-E, hydrochloride]	< 3.10
NC/C(F)=C\Cc1cc(F)cc(C(F)(F)F)c1	< 4.06
COc1cccc(C/C(C)=C(/F)CN)c1 [II-18-E, hydrochloride]	< 3.00
